target: CDK19/Cyclin C (Homo sapiens, UniProt Q9BWU1); experiment: NanoBRET live-cell target engagement, NanoLuc-CDK19/Cyclin C in HEK-293; conditions: 10µM; average of experiments
Sequence (Q9BWU1 whole entry): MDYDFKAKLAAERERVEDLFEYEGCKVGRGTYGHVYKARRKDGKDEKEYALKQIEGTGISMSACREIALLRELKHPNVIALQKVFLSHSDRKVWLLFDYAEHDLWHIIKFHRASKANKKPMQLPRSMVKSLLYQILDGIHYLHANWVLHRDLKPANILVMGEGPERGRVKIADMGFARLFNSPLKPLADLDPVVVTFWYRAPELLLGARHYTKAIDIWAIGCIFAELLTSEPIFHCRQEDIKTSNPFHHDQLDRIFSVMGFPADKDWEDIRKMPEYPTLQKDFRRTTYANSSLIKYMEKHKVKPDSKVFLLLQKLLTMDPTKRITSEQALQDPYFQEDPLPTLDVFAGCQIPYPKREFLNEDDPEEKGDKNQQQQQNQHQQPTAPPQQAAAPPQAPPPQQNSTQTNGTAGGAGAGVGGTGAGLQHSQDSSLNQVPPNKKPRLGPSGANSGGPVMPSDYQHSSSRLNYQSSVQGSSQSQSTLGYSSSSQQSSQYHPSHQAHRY
Sequence (P24863 whole entry partner): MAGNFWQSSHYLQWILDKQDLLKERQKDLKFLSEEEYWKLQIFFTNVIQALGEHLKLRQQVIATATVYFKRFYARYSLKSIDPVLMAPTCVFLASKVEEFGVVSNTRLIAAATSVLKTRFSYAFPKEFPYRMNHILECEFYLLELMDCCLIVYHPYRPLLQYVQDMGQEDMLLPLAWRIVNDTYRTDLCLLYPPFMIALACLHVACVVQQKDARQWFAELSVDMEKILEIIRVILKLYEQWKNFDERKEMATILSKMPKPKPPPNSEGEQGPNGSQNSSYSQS
QUANTITY NAME: CDK19/C Inhibition at 10µM (%)

> print(dat)
                                   compound  result.value
1  Cc1c(Br)c(Br)c2c3c1nc(N1CCNCC1)n3CCC2.Cl [SEL 120-34A]          99.2
2  O=C1NCCc2[nH]c(-c3ccncc3)cc21 [PHA-767491]          90.8
3  O=C1NC(=NCc2cccs2)S/C1=C\c1ccc2ncccc2c1 [RO-3306]          19.5
4  CN(C)C/C=C/C(=O)Nc1ccc(C(=O)Nc2cccc(Nc3ncc(Cl)c(-c4c[nH]c5ccccc45)n3)c2)cc1 [THZ1]          66.6

###

target: CDK19/Cyclin C (Homo sapiens, UniProt Q9BWU1); assay: NanoBRET live-cell target engagement, NanoLuc-CDK19/Cyclin C in HEK-293; conditions: IC50 (nM), CDK19/C; experiment 2
QUANTITY NAME: IC50 (nM)

> print(dat)
                                   compound  result.value
1  CN1CCN(Cc2ccc(NC(=O)Nc3ccc(Oc4ccnc(N)n4)cc3)cc2C(F)(F)F)CC1           2.3
2  Cn1cc(-c2ccc(-c3cncc(Cl)c3N3CCC4(CCNC4=O)CC3)cc2)cn1           1.5
3  COC1CN(C(=O)c2ccc3c(N)ncc(-c4ccc(-c5cnn(C)c5)cc4)c3n2)C1             3
4  CN1CC[C@H](c2c(O)cc(O)c3c(=O)cc(-c4ccccc4Cl)oc23)[C@H](O)C1            18

###

target: CDK2/Cyclin E1 (Homo sapiens); experiment: NanoBRET live-cell target engagement, CDK2-NanoLuc/Cyclin E1 in HEK-293; type: binding; conditions: CDK2/E1; experiment 1
QUANTITY NAME: Inhibition at 10µM (%)

> print(dat)
                                   compound                            tgt  result.value
1  CN1CCC(c2c(O)cc(O)c3c(=O)cc(-c4ccccc4Cl)oc23)C1CO (stereo not shown) [P276-00]  CDK2/Cyclin E1 (Homo sapiens)          16.7
2  CC(C)c1c2cc(-c3ccnc(N[C@H]4CC[C@H](NC5CCOCC5)CC4)n3)ccc2nn1C [LY2857785]  CDK2/Cyclin E1 (Homo sapiens)          85.1
3  CCn1cnc2c(Nc3cccc(Cl)c3)nc(N[C@@H]3CCCC[C@@H]3N)nc21 [CGP74514A]  CDK2/Cyclin E1 (Homo sapiens)          93.3
4  CC(C)c1cnn2c(NCc3ccccc3-n3cccn3)nc(OC3CCCNC3)nc12 (stereo not shown) [LDC4297]  CDK2/Cyclin E1 (Homo sapiens)          85.3

###

target: CDK13/Cyclin K (Homo sapiens); test: NanoBRET live-cell target engagement, CDK13-NanoLuc/Cyclin K in HEK-293; format: binding; settings: CDK13/K; experiment 1; read-out: Inhibition at 10µM (%)
Sequence (O75909 whole entry): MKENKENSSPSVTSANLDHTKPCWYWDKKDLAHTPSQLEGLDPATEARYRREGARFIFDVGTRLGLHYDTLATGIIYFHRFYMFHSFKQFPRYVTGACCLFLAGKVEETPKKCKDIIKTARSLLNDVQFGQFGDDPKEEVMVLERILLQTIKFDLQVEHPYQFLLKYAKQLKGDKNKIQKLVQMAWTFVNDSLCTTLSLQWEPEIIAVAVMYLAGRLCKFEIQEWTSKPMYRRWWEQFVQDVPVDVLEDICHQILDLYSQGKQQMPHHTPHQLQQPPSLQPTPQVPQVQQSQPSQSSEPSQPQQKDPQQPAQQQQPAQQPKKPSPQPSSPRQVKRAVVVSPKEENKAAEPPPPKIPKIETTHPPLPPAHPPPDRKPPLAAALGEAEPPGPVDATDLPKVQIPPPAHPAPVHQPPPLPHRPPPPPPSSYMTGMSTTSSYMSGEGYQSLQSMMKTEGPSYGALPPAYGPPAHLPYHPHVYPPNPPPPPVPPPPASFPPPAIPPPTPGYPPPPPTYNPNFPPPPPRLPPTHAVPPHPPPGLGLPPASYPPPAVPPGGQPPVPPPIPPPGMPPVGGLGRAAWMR
Sequence (Q14004 other isoform, or with tags, fused parts or gaps): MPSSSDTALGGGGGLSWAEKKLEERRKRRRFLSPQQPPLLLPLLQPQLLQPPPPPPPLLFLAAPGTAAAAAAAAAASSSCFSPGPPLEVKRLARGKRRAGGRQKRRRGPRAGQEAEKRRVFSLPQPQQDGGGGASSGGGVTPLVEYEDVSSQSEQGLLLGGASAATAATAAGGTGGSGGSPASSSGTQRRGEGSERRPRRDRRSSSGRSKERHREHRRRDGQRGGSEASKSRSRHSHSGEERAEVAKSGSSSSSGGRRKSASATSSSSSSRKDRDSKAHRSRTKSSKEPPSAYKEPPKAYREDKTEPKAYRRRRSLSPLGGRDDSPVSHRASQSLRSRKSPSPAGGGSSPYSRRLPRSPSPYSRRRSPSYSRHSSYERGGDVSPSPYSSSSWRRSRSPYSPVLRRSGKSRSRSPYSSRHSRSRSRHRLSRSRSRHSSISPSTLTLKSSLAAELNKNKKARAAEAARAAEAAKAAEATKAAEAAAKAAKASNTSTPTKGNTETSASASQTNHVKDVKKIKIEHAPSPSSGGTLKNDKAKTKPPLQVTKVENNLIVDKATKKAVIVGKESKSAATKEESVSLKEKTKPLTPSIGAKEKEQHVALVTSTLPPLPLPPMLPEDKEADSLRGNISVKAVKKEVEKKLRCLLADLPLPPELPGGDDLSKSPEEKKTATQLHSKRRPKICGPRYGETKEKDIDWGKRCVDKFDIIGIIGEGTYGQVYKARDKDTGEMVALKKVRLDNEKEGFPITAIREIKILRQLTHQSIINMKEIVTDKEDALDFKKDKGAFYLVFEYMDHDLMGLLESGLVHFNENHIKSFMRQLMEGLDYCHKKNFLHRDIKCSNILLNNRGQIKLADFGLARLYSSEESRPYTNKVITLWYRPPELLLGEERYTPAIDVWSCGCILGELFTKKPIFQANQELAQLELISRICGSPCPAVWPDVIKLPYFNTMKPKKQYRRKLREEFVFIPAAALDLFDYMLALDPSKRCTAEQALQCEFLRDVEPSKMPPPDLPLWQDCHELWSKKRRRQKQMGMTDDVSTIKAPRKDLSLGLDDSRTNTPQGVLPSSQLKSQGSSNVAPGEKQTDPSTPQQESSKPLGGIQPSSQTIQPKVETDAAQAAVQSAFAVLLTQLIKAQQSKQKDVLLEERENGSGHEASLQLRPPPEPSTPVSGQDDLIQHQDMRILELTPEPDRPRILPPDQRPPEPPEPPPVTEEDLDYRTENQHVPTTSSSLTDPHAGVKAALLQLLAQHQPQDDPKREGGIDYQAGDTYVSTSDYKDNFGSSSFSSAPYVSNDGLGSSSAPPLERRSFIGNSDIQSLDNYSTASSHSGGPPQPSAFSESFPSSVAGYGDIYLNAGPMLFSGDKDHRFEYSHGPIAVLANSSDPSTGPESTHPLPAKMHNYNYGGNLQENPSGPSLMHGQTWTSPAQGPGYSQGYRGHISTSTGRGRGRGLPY
inhibition at 10 µM below 10% gives -1; inhibition at 10 µM at or above it gives 1.

> print(dat)
                                   compound  category.label
1  CC(C)(C)c1nc(-c2cccc(NS(=O)(=O)c3c(F)cccc3F)c2F)c(-c2ccnc(N)n2)s1 [Dabrafenib]              -1
2  CC(C)N1CCN(c2ccc(Nc3ncc4cc5n(c4n3)C3(CCCCC3)CNC5=O)nc2)CC1 [Lerociclib]              -1
3  NS(=O)(=O)c1ccc(Nc2nc(OCC3CCCCC3)c3nc[nH]c3n2)cc1 [NU6102]               1
4  CN1CCN(c2ccc(Nc3ncc4cc(C#N)c(=O)n(C5CCCC5)c4n3)cc2)CC1 [ON123300]              -1
5  CN1CCN(Cc2ccc(NC(=O)Nc3ccc(Oc4ccnc(N)n4)cc3)cc2C(F)(F)F)CC1 [K03861]               1

###

target: CDK19/Cyclin C (Homo sapiens); test: NanoBRET live-cell target engagement, NanoLuc-CDK19/Cyclin C in HEK-293; conditions: read-out: Inhibition at 10µM (%) Average, CDK19/C; 10µM; average of replicates
inhibition at 10 µM below 90% gives NOT MET; inhibition at 10 µM at or above it gives MET.

> print(dat)
                                   molecule  category.label
1  Cc1ncc(-c2ccnc(Nc3ccc(S(C)(=O)=O)cc3)n2)n1C(C)C [AZD5438]             MET
2  COc1cc(F)ccc1-c1cc(Nc2cc(CS(C)(=N)=O)ccn2)ncc1F (centres unmarked) [BAY-1251152]         NOT MET
3  CCCCOc1c(C(=O)c2c(F)cc(C)cc2F)c[nH]c2nncc1-2 [BMS-265246]             MET
4  CC(C)c1cnn2c(NCc3ccccc3)cc(NCCCCCCN)nc12 [BS-181]         NOT MET
5  CCN1CCN(Cc2ccc(NC(=O)Nc3ccc(Oc4cc(NC)ncn4)cc3)cc2C(F)(F)F)CC1 [AST-487]             MET

###

target: CDK5/CDK5R1 (Homo sapiens); test: NanoBRET live-cell target engagement, CDK5-NanoLuc/CDK5R1 in HEK-293; assay type: binding; details: CDK5/CDK5R1; 10µM; read-out: Inhibition at 10µM (%) Replicate 1
QUANTITY NAME: inhibition at 10 µM

> print(dat)
                                   compound        quantity.name  result.value
1  CC(C)c1cnn2c(NCc3ccccc3)cc(NCCCCCCN)nc12  inhibition at 10 µM         26.8%
2  C[C@H]1CC[C@H](n2c3cnccc3c3cnc(Nc4ccc5c(n4)CCN(C(=O)CO)C5)nc32)CC1  inhibition at 10 µM         24.7%
3  Cc1ncc(-c2ccnc(Nc3ccc(S(C)(=O)=O)cc3)n2)n1C(C)C  inhibition at 10 µM         87.9%
4  CCN1CCN(Cc2ccc(Nc3ncc(F)c(-c4cc(F)c5nc(C)n(C(C)C)c5c4)n3)nc2)CC1  inhibition at 10 µM           38%

###

target: CDK11A/Cyclin L2 (Homo sapiens); assay: NanoBRET live-cell target engagement, CDK11A-NanoLuc/Cyclin L2 in HEK-293; type: binding; details: live HEK-293, 2 h; mean ± S.E.M. (n=3) or mean (n=2); read-out: IC50 for CDK/cyclin complexes, CDK11a/L2
Sequence (Q9UQ88 whole entry): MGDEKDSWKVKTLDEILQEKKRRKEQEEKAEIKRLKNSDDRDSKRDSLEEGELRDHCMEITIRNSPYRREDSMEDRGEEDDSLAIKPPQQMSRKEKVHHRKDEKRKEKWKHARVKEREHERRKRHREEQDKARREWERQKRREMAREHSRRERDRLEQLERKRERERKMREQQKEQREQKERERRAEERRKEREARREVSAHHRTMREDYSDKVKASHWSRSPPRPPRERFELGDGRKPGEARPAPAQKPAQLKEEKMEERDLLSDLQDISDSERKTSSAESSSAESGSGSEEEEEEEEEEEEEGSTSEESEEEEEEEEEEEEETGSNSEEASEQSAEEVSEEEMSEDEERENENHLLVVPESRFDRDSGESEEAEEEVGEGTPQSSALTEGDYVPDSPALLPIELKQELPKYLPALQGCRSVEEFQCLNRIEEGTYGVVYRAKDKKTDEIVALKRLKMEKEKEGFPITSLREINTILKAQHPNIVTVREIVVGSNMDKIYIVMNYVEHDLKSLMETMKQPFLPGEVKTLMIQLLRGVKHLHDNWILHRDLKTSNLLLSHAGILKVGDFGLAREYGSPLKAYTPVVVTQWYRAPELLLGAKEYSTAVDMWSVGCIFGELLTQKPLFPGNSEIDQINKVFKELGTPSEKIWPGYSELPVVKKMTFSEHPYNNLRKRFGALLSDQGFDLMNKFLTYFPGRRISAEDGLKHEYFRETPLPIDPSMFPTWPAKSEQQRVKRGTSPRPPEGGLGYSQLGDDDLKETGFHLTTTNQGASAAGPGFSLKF
pIC50: −log10 of the molar value.
QUANTITY NAME: pIC50

> print(dat)
                                   compound  quantity.name  result.value
1  CN(C)C/C=C/C(=O)Nc1ccc(C(=O)Nc2cccc(Nc3ncc(Cl)c(-c4c[nH]c5ccccc45)n3)c2)cc1 [THZ1]          pIC50          6.52

###

Reported values of inhibition at 10 µM for individual entries
target: CDK17/Cyclin Y (Homo sapiens, UniProt Q00537); assay: NanoBRET live-cell target engagement, CDK17-NanoLuc/Cyclin Y in HEK-293; format: binding; conditions: 10µM; average of experiments; read-out: CDK17/Y Inhibition at 10µM (%)
Sequence (Q00537 whole entry): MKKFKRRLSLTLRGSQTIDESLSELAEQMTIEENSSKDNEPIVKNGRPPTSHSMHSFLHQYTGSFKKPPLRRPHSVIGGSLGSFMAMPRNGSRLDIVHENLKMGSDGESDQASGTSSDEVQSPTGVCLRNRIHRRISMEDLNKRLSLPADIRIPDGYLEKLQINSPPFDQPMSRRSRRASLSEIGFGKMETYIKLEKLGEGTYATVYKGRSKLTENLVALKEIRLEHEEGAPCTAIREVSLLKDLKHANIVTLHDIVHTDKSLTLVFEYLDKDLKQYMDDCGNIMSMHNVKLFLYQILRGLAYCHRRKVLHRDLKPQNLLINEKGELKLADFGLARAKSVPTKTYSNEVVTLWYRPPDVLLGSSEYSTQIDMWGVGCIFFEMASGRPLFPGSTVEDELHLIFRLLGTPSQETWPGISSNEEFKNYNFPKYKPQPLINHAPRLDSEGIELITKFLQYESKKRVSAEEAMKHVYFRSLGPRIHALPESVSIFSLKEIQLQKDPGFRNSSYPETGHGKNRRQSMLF
Sequence (Q8ND76 whole entry partner): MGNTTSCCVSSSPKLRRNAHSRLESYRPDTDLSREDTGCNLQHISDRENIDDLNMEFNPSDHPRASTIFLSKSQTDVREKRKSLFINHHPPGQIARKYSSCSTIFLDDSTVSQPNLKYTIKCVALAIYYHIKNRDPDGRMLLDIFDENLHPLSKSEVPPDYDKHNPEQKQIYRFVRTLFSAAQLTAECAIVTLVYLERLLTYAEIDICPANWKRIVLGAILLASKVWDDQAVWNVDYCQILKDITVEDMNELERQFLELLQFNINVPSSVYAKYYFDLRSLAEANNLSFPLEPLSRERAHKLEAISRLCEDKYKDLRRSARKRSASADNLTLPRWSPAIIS
QUANTITY NAME: inhibition at 10 µM (%)

> print(dat)
                                   compound        quantity.name  result.value
1  CN(C)C/C=C/C(=O)Nc1ccc(C(=O)N2CCC[C@@H](Nc3ncc(Cl)c(-c4c[nH]c5ccccc45)n3)C2)cc1  inhibition at 10 µM            63
2  CC(C)[C@H](CO)Nc1nc(Nc2ccc(C(=O)O)c(Cl)c2)c2ncn(C(C)C)c2n1  inhibition at 10 µM           2.5
3  CN1CCN(c2ccc(Nc3ncc4cc5n(c4n3)C3(CCCCC3)CNC5=O)nc2)CC1  inhibition at 10 µM          41.1
4  CN1C/C=C/CCOc2cccc(c2)-c2ccnc(n2)Nc2cccc(c2)C1  inhibition at 10 µM          94.8
5  CC(=O)c1c(C)c2cnc(Nc3ccc(N4CCNCC4)cn3)nc2n(C2CCCC2)c1=O  inhibition at 10 µM            72
6  CC(C)CC(=O)Nc1[nH]nc2c1CN(C(=O)C1CCN(C)CC1)C2(C)C  inhibition at 10 µM          86.9
